Source of measurements: ChEMBL document CHEMBL6127017

assay: Metabolic stability in human liver microsomes assessed as compound remaining at 1 uM measured after 60 mins in presence of NADPH/UDPGA by LC-MS/MS analysis; type: ADME, Microsome; conditions: read-out: Stability
Reported values of remaining at 1 h, 1 µM for individual entries
Your reply should be a number followed by the unit it is expressed in.

Example cases with answers are listed next.
O=C(C1CC1)N1CCC(CN(Cc2ccc([N+](=O)[O-])s2)Cc2ccc(F)cc2F)C1 (stereo not drawn)
0.07%
CCOC(=O)N1CCC(CN(Cc2ccc(Cl)cc2)Cc2ccc([N+](=O)[O-])s2)C1 (stereo not drawn)
0.06%

Prompt line: Provide measured remaining at 1 h, 1 µM value, entry: O=C(C1CC1)N1CCC(CN(Cc2ccc(Cl)c(Cl)c2)Cc2ccc([N+](=O)[O-])s2)C1 (stereo not drawn)
Response line: 0.15%

----------
test: Cytotoxicity against MDCK cells; type: toxicity, cell-based, Canis lupus familiaris; conditions: dog, read-out: TC50 (the source's name)
The following molecules are listed with their measured CC50 values.
Expressed in µM, but write only the number.

Below, each entry is followed by its recorded CC50 result.
O=C(C1CC1)N1CCC(CN(Cc2cccc(Br)c2)Cc2ccc([N+](=O)[O-])s2)C1 (centres undefined)
15.4
O=C(C1CC1)N1CCC(CN(Cc2ccc([N+](=O)[O-])s2)Cc2ccc(F)cc2Cl)C1 (centres undefined)
38.5
O=C(C1CC1)N1CCC(CN(Cc2ccc(Cl)c(Cl)c2)Cc2ccc([N+](=O)[O-])s2)C1 (centres undefined)
10.7

Prompt line: Quote CC50 reported for O=C(C1CC1)N1CCC(CN(Cc2ccc3c(c2)OCO3)Cc2ccc([N+](=O)[O-])s2)C1 (centres undefined) please.
Response line: 15.4
